Cited source: ChEMBL document CHEMBL1201862

System: HOP-92
Protocol notes: NCI tumour cell line growth inhibition, 48 h
Calls of active or inactive are those of the source. Cut-off read from the data, not from the text of the source: active = GI50 up to about 1.1 µM and inactive = higher.
Choose the fitting class; nothing outside active, inactive is accepted.

Please review the entries below; each comes with its answer.
| Compound | Study system | Cat |
| --- | --- | --- |
| CNS(=O)(=O)NN(C)S(=O)(=O)c1ccc(C)cc1 | HOP-92 | inactive |
| CC(=O)c1c(-c2cccc3ccccc23)c(C#N)c(=S)n(C2OC(CO)C(O)C(O)C2O)c1-c1ccccc1 (centres undefined) | HOP-92 | inactive |
| CC(=O)OCC1OC(OC2CC3C(C)(C)C(OC(C)=O)CC[C@]3(C)C3CCC45CC4(CCC5[C@@H](C)C[C@H](O)C(O)C(C)(C)O)[C@]23C)C(O)C(O)C1O (some centres undefined) | HOP-92 | inactive |
| C=C1CN=C(Nc2ccc(Cl)cc2)S1 | HOP-92 | inactive |
| C=C(C)C(=O)OC1CC2(C)OC(=CC2=O)C(C)CC2OC(=O)C(=C)C12 (centres undefined) | HOP-92 | inactive |
| COC(=O)C(C)(C)NC(=O)C(Cc1ccccc1)Nc1ncnc2c1ncn2-c1ccc(OC)cc1 (centres undefined) | HOP-92 | inactive |
| CC[C@@]1(O)C[C@H](OC2CC(N(C)C)C(OC3CC(O)C(OC4CC(O)C(O)C(C)O4)C(C)O3)C(C)O2)c2c(cc3c(c2O)C(=O)c2c(O)ccc(O)c2C3=O)[C@H]1C(=O)OC (some centres undefined) | HOP-92 | active |
| Cc1nc2ccccc2nc1NS(=O)(=O)c1ccc(N)cc1 | HOP-92 | inactive |

Below: the item to evaluate.
Task: Would you mind telling me which call this test gave O=C(NC(Cc1ccccc1)C(=O)CCl)OCc1ccccc1 (centres undefined) ?
Result: inactive
